Tested on: DCAMKL3;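 further: KINOMEscan scanMAX binding as percent activity remaining versus control; lower means stronger binding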
Construct: gene DCLK3
experimental.conditions: Compound Concentration (nM):1000
readout.type: Percent Control (%)
Give just the number in %; leave the unit off.

Examples with their reported Percent Control follow.
compound | Percent Control, %
CCc1ccc(Oc2nccc(-c3c(-c4ccc(F)cc4)ncn3C3CCNCC3)n2)cc1 | 100
COc1cccc(-c2c[nH]c3c(N/N=C/c4ccncc4)ncnc23)c1 [GW814408X] | 56
COc1cc2ncnc(Nc3ccc4c(cnn4Cc4ccccc4)c3)c2cc1OC.Cl [GW282449A] | 100
CN(C)c1cc2c(Nc3ccc4c(cnn4Cc4ccccc4)c3)ncnc2cn1 [GW282974X] | 100
Cl.c1ccc(Cc2nc3ccc(Nc4ncnc5ccccc45)cc3[nH]2)cc1 [GR269666A] | 100
COc1cccc(-n2ncc3c(N/N=C/c4ccncc4)ncnc32)c1 [GW784752X] | 71

// query Quick one: Percent Control of Cc1cc(O)cc(C)c1/C=C/c1cncc(C(N)=O)c1 [GW435821X] ?
// result 100

// query Would you mind doing Cl.O=C(Nc1ccc(Oc2ccc3[nH]c(NC(=O)c4ccccc4)nc3c2)cc1)Nc1cc(C(F)(F)F)ccc1F [GW709042A] as well?
// result 100

All figures here come from paper PMC7826789.
